In this section, each of the molecules is paired with its reported Dmax.
- testedOn: BRAF D594G (Homo sapiens, UniProt P15056, D594G)
- Construct: Horizon Discovery (HCT-116 BRAF−/− cells); host or cells: HCT-116 BRAF−/− cells, clone 63, lentiviral transduction
- Sequence (P15056 whole entry D594G): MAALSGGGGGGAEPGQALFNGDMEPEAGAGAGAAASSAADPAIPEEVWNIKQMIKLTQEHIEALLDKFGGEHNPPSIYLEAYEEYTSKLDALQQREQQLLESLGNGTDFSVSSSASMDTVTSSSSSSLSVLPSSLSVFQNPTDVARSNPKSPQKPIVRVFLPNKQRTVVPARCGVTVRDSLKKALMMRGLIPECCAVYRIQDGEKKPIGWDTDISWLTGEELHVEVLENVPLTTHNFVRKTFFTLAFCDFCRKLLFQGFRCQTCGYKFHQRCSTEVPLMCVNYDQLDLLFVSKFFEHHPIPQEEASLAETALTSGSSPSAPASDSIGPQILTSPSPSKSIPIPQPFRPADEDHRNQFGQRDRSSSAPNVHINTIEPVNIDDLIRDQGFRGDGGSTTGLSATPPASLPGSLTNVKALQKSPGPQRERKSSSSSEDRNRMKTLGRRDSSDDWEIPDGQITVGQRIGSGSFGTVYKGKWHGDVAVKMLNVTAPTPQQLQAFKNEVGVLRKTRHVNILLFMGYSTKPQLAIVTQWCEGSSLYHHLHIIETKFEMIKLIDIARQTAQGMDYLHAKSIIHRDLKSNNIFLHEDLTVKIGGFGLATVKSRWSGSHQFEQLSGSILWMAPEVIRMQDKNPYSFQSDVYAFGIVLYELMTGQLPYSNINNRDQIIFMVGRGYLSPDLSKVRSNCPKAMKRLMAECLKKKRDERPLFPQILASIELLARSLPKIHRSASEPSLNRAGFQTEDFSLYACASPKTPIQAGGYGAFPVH
- test: BRAF HiBiT degradation assay, C-terminal HiBiT-tagged BRAF D594G overexpressed in HCT-116 BRAF−/− cells (clone 63), Nano-Glo HiBiT Lytic assay
- Type: cell-based
- testContext: BRAF D594G (Class 3), HCT-116 BRAF−/− cells; observed Dmax relative to DMSO control

[[record]]
molecule = "O=C1CC[C@H](c2ccc(N3CCC(CN4CCN(c5ccc(-n6cc(-c7cc(Cl)cc(NS(=O)(=O)N8CC(F)C8)c7F)c(-c7ccncc7)n6)cc5)CC4)CC3)nc2)C(=O)N1"
propertymeasured = "Dmax"
valueobserved = "30 to 70%"

[[record]]
molecule = "O=C1CCC(c2ccc(N3CCC(CN4CCN(c5ccc(-n6cc(-c7cc(Cl)cc(NS(=O)(=O)N8CCCC8)c7F)c(-c7ccncc7)n6)cc5)CC4)CC3)nc2)C(=O)N1 (racemic)"
propertymeasured = "Dmax"
valueobserved = "> 70%"

[[record]]
molecule = "O=C1CCC(c2ccc(N3CCC(CN4CCN(c5ccc(-n6cc(-c7cc(Cl)cc(NS(=O)(=O)N8CC[C@@H](F)C8)c7F)c(-c7ccncc7)n6)cc5F)CC4)CC3)nc2)C(=O)N1 (mixture of isomers)"
propertymeasured = "Dmax"
valueobserved = "> 70%"


Input line: Can you look up the measured Dmax of O=C1CC[C@H](c2ccc(N3CCC(CN4CCN(c5ccc(-n6cc(-c7cc(Cl)cc(NS(=O)(=O)N8CC[C@@H](F)C8)c7F)c(-c7ccncc7)n6)nc5)CC4)CC3)cc2)C(=O)N1 for me?
Output line: > 70%

Input line: Can you look up the measured Dmax of O=C1CCC(c2ccc(N3CCC(CN4CCN(c5cnc(-n6cc(-c7cc(Cl)cc(NS(=O)(=O)N8CCCC8)c7F)c(-c7ccncc7)n6)nc5)CC4)CC3)nc2)C(=O)N1 (racemic) for me?
Output line: > 70%

Input line: Can you look up the measured Dmax of CCCS(=O)(=O)Nc1cccc(-c2nc(C3CCN(C(=O)C4CCN(CC5CCN(c6ccc(C7CCC(=O)NC7=O)cn6)CC5)CC4)CC3)sc2-c2ccnc(N)n2)c1F (racemic) for me?
Output line: 30 to 70%

Input line: Can you look up the measured Dmax of C[C@@H]1CN(c2ccc(-n3cc(-c4cc(Cl)cc(NS(=O)(=O)N5CCCC5)c4F)c(-c4ccncc4)n3)nc2)CCN1CC1CCN(c2ccc([C@H]3CCC(=O)NC3=O)cc2)CC1 for me?
Output line: > 70%

Input line: Can you look up the measured Dmax of O=C1CCN(c2ccc(N3CCC(CN4CCN(c5ccc(-n6cc(-c7cc(Cl)cc(NS(=O)(=O)N8CCCC8)c7F)c(-c7ccncc7)n6)c(F)c5)CC4)CC3)nc2)C(=O)N1 for me?
Output line: 30 to 70%

Input line: Can you look up the measured Dmax of CCCS(=O)(=O)Nc1cccc(-c2nc(C3CCC4(CC3)CN(C(=O)CC3CCN(C5CCN(c6ccc7c(c6)C(=O)N(C6CCC(=O)NC6=O)C7=O)CC5)CC3)C4)sc2-c2ccnc(N)n2)c1F (racemic) for me?
Output line: 30 to 70%

Input line: Can you look up the measured Dmax of O=C1CCC(c2ccc(N3CCC(CN4CCN(c5ccc(-n6cc(-c7cc(Cl)cc(NS(=O)(=O)N8CCCC8)c7F)c(-c7ccncc7)n6)cc5)CC4)CC3)c(F)c2F)C(=O)N1 (racemic) for me?
Output line: 30 to 70%
